test: Pharmacokinetic (toxicokinetic) study, plasma; assay type: in vivo, Sprague Dawley rats; conditions: male, Sprague Dawley, rat, plasma, iv, 40 mg/kg, Day 1, 40 mg/kg IV, Male, plasma; read-out: T1/2 (converted)
Readout Label: half-life (h)
Express your answer in h, writing the number without its unit.

Problem: Reported half-life, compound CC(=O)N[C@H]1[C@H](Oc2ccc([N+](=O)[O-])cc2)O[C@H](CO)[C@@H](O)[C@@H]1O [AVR-48] : ____
Result: 1.64

###

Test: Pharmacokinetic (toxicokinetic) study, plasma
Type: in vivo, Sprague Dawley rats
Conditions: female, Sprague Dawley, rat, plasma, iv, 40 mg/kg, Day 1, 40 mg/kg IV, Female, plasma
Description: For the PK study of AVR-48 in rats, a formulation consisting of 10% DMSO, 20% tetraglycol, 20% PEG 400, and 50% sterile water was developed. Each preparation was made on the same day of dose administration. […] Briefly, the appropriate volume of DMSO (10% of the final volume) was measured into a container followed by gradual addition of PEG 400 (20% of the final volume) and sterile water (50% of the final volume) to make up the volume and mixed thoroughly till completely dissolved. […]
Readout Label: AUC(0-t) (ng·h/mL)
Express your answer in ng·h/mL, writing the number without its unit.

Problem: Reported AUC(0-t), compound CC(=O)N[C@H]1[C@H](Oc2ccc([N+](=O)[O-])cc2)O[C@H](CO)[C@@H](O)[C@@H]1O [AVR-48] : ____
Result: 53900
